# TEST_DESCRIPTION: Pharmacokinetic study in mice (IV, PO)
# Type: in vivo, mice (C57BL/6)
# TEST_CONTEXT: female, C57BL/6; Table A; Mouse Plasma; PO; 10 mg/kg
MEASUREMENT_TYPE: half-life (h)
Enter your answer as a number in h; do not include the unit.

Q) Look up half-life: "O=C(N[C@H]1CC[C@@H](Oc2nc(N3CCOCC3)cc3ncccc23)CC1)c1ncccn1"
A) 3.51

* * *

# SYSTEM_TESTED: DNA-PK (Homo sapiens, UniProt P78527)
# Construct: purchased Invitrogen PR9107A
# TEST_DESCRIPTION: DNA-PK Assay for Biochemical Enzymatic Inhibition (ADP Glo Kinase assay)
# TEST_CONTEXT: Table 1
pIC50: −log10 of the molar value.
Here the recorded pIC50 is given for each entry.

| MOLECULE | MEASUREMENT_TYPE | MEASUREMENT |
| --- | --- | --- |
| c1cnc2cc(N3CCOCC3)nc(O[C@H]3CC[C@@H](Nc4ncc5sccc5n4)CC3)c2c1 | pIC50 | > 9.30 |
| Cn1cc([C@H]2CC[C@H](Oc3nc(N4CCOCC4)cc4ncc(Br)cc34)CC2)cn1 | pIC50 | 6.82 to 8.00 |
| O=C(O)c1cnc(N[C@H]2CC[C@@H](Oc3nc(N4CCOCC4)cc4ncccc34)CC2)nc1 | pIC50 | > 9.30 |
| c1cnc2cc(N3CCOCC3)nc(O[C@H]3CC[C@@H](Nc4ccn5nccc5n4)CC3)c2c1 | pIC50 | 9.00 to 9.30 |
| CS(=O)(=O)Nc1cnc(N[C@H]2CC[C@@H](Oc3nc(N4CCOCC4)cc4ncccc34)CC2)nc1 | pIC50 | > 9.30 |
| COc1ccnc(N[C@H]2CC[C@@H](Oc3nc(N4CCOCC4)cc4ncccc34)CC2)n1 | pIC50 | 9.00 to 9.30 |
| Cc1c(C(F)(F)F)cnn1[C@H]1CC[C@@H](Oc2nc(N3CCOCC3)cc3ncccc23)CC1 [Compound 17h] | pIC50 | 8.00 to 9.00 |
| FC(F)(F)c1ccn([C@H]2CC[C@@H](Oc3nc(N4CCOCC4)cc4ncccc34)CC2)n1 [Compound 17c] | pIC50 | 6.82 to 8.00 |

Please look at the following molecule next.
Q) Look up pIC50: "Nc1cnc(N[C@H]2CC[C@@H](Oc3nc(N4CCOCC4)cc4ncccc34)CC2)nc1"
A) > 9.30

* * *

# SYSTEM_TESTED: pDNA-PK ser2056 induction in FaDU spheroids (Homo sapiens, UniProt P78527)
# Construct: host or cells: FaDu
# TEST_DESCRIPTION: Multicellular tumour spheroid + radiation, pDNA-PK inhibition, FaDU
# Assay type: cell-based
# TEST_CONTEXT: Example 9 Study 2; 20 Gy; 20% O2; read-out: Spheroid Cell line: FaDU Immunohistochemical endpoint pDNA-PK inhibition EC50
Here the recorded EC50 is given for each entry.

| COMPOUND | MEASUREMENT_TYPE | MEASUREMENT |
| --- | --- | --- |
| O=C(N[C@H]1CC[C@@H](Oc2nc(N3CCOCC3)cc3ncccc23)CC1)c1ccco1 | EC50 | 0.01 to 0.5 µM |
| COc1ccc(C(=O)N[C@H]2CC[C@@H](Oc3nc(N4CCOCC4)cc4ncccc34)CC2)cc1 | EC50 | 0.01 to 0.5 µM |

Q) Look up EC50: "c1cnc2cc(N3CCOCC3)nc(O[C@H]3CC[C@@H](Nc4cnccn4)CC3)c2c1"
A) 0.01 to 0.5 µM

Q) Same question for "Cc1cnc(N[C@H]2CC[C@@H](Oc3nc(N4CCOCC4)cc4ncccc34)CC2)nc1" please.
A) 0.5 to 1 µM

Q) Same question for c1cnc(N[C@H]2CC[C@@H](Oc3nc(N4CCOCC4)cc4ncccc34)CC2)nc1 [Compound 20a] please.
A) 0.5 to 1 µM

Q) Same question for FC(F)(F)c1cn([C@H]2CC[C@@H](Oc3nc(N4CCOCC4)cc4ncccc34)CC2)cn1 [Compound 17k] please.
A) 0.5 to 1 µM

Q) Same question for CCOCCOc1cnc(N[C@H]2CC[C@@H](Oc3nc(N4CCOCC4)cc4ncc(O)cc34)CC2)nc1 [Compound 19b] please.
A) 0.5 to 1 µM

Q) Same question for "O=C(N[C@H]1CC[C@@H](Oc2nc(N3CCOCC3)cc3ncccc23)CC1)c1cncnc1" please.
A) 0.5 to 1 µM

Q) Same question for Oc1cnc2cc(N3CCOCC3)nc(O[C@H]3CC[C@@H](Nc4ncccn4)CC3)c2c1 [Compound 19a] please.
A) 0.5 to 1 µM

Q) Same question for "Brc1cnc2cc(N3CCOCC3)nc(O[C@H]3CC[C@@H](n4ccnc4)CC3)c2c1" please.
A) 0.5 to 1 µM
